A compilation of pIC50 values for MALT1 (Homo sapiens) from the published literature.
pIC50: −log10 of the molar value.
Please enter 1 where pIC50 is greater than or equal to 7, and 0 where it is lower.

[[record]]
molecule = "Cn1nc(-c2cnc3ncccn23)c(C(F)(F)F)c1C(=O)Nc1ccnc(C(F)(F)F)c1"
assay_target = "MALT1 (Homo sapiens)"
cat = 0

[[record]]
molecule = "CO[C@@H](C)c1c(Nc2ccc([C@H](N(C)C(=O)[C@H]3CC[C@H](C(N)=O)CC3)C(F)(F)F)cc2)cnc2nc(Cl)nn12"
assay_target = "MALT1 (Homo sapiens)"
cat = 1

[[record]]
molecule = "O=C(Nc1cnc(-n2nccn2)c(Cl)c1)c1cnn(-c2ccnc3c2OCO3)c1C(F)(F)F"
assay_target = "MALT1 (Homo sapiens)"
cat = 1

[[record]]
molecule = "COc1ncc(-n2ncc(C(=O)Nc3cnc(-n4nccn4)c(Cl)c3)c2C(F)(F)F)c2ccccc12"
assay_target = "MALT1 (Homo sapiens)"
cat = 1

[[record]]
molecule = "O=C(Nc1ccc(-n2cccn2)c(Cl)c1)c1cnn(-c2cccc3ccncc23)c1C(F)(F)F"
assay_target = "MALT1 (Homo sapiens)"
cat = 0

[[record]]
molecule = "Cc1nc(-n2nccn2)c(Cl)cc1NC(=O)c1cnn(-c2cnc(N3CC(O)C3)c3sccc23)c1C(F)(F)F"
assay_target = "MALT1 (Homo sapiens)"
cat = 0

[[record]]
molecule = "Cc1cccc(-n2ncc(C(=O)Nc3cnc(-n4nccn4)c(Cl)c3)c2C(F)(F)F)n1"
assay_target = "MALT1 (Homo sapiens)"
cat = 0

[[record]]
molecule = "Cn1ccc(-c2ncc(NC(=O)c3cnn(-c4cncc5ccccc45)c3C(F)(F)F)cc2C#N)n1"
assay_target = "MALT1 (Homo sapiens)"
cat = 1

[[record]]
molecule = "Cn1nc(-c2ccccc2)c(C(F)(F)F)c1C(=O)Nc1cc(C2CC2)ccn1"
assay_target = "MALT1 (Homo sapiens)"
cat = 0

[[record]]
molecule = "N#Cc1cc(NC(=O)c2cnn(-c3nccc4ncccc34)c2C(F)(F)F)cnc1-n1nccn1"
assay_target = "MALT1 (Homo sapiens)"
cat = 1

[[record]]
molecule = "COC(C)c1c(NC(=O)Nc2cnc(-n3nccn3)c(Cl)c2)cncc1NC(C)C (centres unmarked)"
assay_target = "MALT1 (Homo sapiens)"
cat = 0

[[record]]
molecule = "COC(C)c1c(C#N)cncc1NC(=O)Nc1cnc(-n2nccn2)c(Cl)c1 (centres unmarked)"
assay_target = "MALT1 (Homo sapiens)"
cat = 0

[[record]]
molecule = "Cc1nc(-n2nccn2)c(Cl)cc1NC(=O)c1cnn(-c2cncc3c(F)cccc23)c1C(F)(F)F"
assay_target = "MALT1 (Homo sapiens)"
cat = 1

[[record]]
molecule = "O=C(O)c1cnn(-c2ccc(NC(=O)c3cnn(-c4cccc5ncccc45)c3C(F)(F)F)cc2Cl)n1"
assay_target = "MALT1 (Homo sapiens)"
cat = 0

[[record]]
molecule = "CN1CCC(c2nsc(C(=O)Nc3cnc(-n4nccn4)c(C#N)c3)c2C2CC2)CC1"
assay_target = "MALT1 (Homo sapiens)"
cat = 0

[[record]]
molecule = "CN1CCN(C(=O)c2ncc(NC(=O)c3cnn(-c4cncc5ccccc45)c3C(F)(F)F)cc2C#N)CC1"
assay_target = "MALT1 (Homo sapiens)"
cat = 0

[[record]]
molecule = "CC(C)c1c(Nc2ccc([C@H](N(C)C(=O)C3CCS(=O)(=O)CC3)C(F)(F)F)cc2)cnn1C"
assay_target = "MALT1 (Homo sapiens)"
cat = 0

[[record]]
molecule = "CS(C)(=O)=Nc1ncc(NC(=O)c2cnn(-c3ccc(F)c4nccn34)c2C(F)(F)F)cc1Cl"
assay_target = "MALT1 (Homo sapiens)"
cat = 0

